# subject of test: Polyunsaturated fatty acid lipoxygenase ALOX12 (Homo sapiens) (UniProt P18054)
# Sequence (P18054 whole entry, looked up): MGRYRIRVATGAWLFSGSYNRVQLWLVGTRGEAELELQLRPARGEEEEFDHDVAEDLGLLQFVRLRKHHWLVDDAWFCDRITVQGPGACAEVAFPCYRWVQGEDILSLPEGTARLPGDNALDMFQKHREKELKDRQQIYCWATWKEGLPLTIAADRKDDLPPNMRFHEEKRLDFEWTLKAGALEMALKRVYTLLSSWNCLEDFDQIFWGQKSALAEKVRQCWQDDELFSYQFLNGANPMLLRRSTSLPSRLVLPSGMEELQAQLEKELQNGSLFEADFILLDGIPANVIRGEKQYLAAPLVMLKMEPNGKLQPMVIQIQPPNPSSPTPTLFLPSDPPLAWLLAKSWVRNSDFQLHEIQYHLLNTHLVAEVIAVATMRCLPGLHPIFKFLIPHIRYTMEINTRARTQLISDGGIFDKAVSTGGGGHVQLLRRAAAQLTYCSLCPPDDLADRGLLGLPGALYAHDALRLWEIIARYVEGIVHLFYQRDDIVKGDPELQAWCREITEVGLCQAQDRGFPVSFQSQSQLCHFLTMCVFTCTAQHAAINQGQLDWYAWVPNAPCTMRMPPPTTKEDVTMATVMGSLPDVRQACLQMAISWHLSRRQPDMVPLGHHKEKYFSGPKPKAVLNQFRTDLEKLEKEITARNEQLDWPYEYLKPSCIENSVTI
# test protocol: Primary qHTS assay for inhibitors of human arachidonate 12S-lipoxygenase (ALOX12): Round 2
# conditions used: purified 12hLO, xylenol orange hydroperoxide absorbance; series mostly up to 108 µM
In all, about 580,000 compounds went through this assay and about 6,100 (1.1%) were called active. Another 15% or so got no clear call; they are omitted. Calls come from the whole dose curve; as a rule, active = well fitted inhibition curve with a large enough effect; inconclusive = small, poorly fitted or top-dose-only effect, or another doubt; inactive = no such curve, though single readings can be large or run the other way. The sample holds actives, similar compounds and a random draw of the others, so the mix is not that of the screen.
// one of label 1 = active, label 0 = inactive, no free text

>>> discrete_label("C[C@]12CCC3=C4CCC(=O)C=C4CC[C@@H]3[C@H]1CC[C@@]2(O)CC#N")
"label 1"

Could you kindly confirm the outcome this assay logged for C#C[C@]1(O)CC[C@H]2[C@@H]3CCC4=CC(=O)CC[C@@H]4[C@H]3CC[C@@]21CC ?
label 0

Assay outcome for Cc1ccc(C)c(/C=C/c2nc3ccccc3s2)c1 : what was it?
label 0

Check the results log: what was the call for Cc1ccc(C(NC(=O)Cc2cccs2)C(=O)Nc2ccc3c(c2)OCO3)cc1 (stereo not given) ?
label 0

Hi team, can someone confirm the assay call for CCN(CC)C(=O)CSc1ncc(-c2ccc(Br)cc2)o1 ?
label 0

* * *

# subject of test: Polyunsaturated fatty acid lipoxygenase ALOX12 (Homo sapiens) (UniProt P18054)
# test protocol: Primary qHTS assay for inhibitors of human arachidonate 12S-lipoxygenase (ALOX12): Round 2
# conditions used: purified 12hLO, xylenol orange hydroperoxide absorbance; series mostly up to 108 µM
The campaign covered roughly 580,000 compounds. About 6,100 (1.1%) were called active. Inconclusive results (about 15%) are left out. Calls follow the shape of the dose curve; as a rule, active = well fitted inhibition curve with a large enough effect; inconclusive = small, poorly fitted or top-dose-only effect, or another doubt; inactive = no such curve, though single readings can be large or run the other way. For the sample, actives were picked, then their nearest neighbours and some compounds at random.
Parameter call: string, one of active, inactive

Assay outcome for CCc1nnsc1C(=O)N(C)CCOc1ccccc1 : what was it?
inactive

// outcome(item) with item = CC1(C)CC(=O)C/C(=N/NC(=O)c2ccc(NC(=O)C3CC3)cc2)C1
inactive

Recorded call for Cc1[nH]c2ccccc2c1C(=O)C(=O)NC(C)CCc1ccccc1 (stereo unspecified) ?
inactive

Recorded call for CC(C)CCN1CC2(CCCN(C(=O)c3ccn(C)c(=O)c3)C2)CCC1=O (stereo unspecified) ?
inactive

Recorded test call requested for Cc1cc(C(=O)OCC(=O)NC(=O)c2ccccc2)c2ccccc2n1
inactive

Returns: the outcome recorded for CCC(=O)NNC(=S)Nc1ccccc1 in this assay.
inactive

Hi team, can someone confirm the assay call for Cc1noc(/C=C/c2ccco2)c1S(=O)(=O)N1CCC(C(=O)N2CCc3ccccc32)CC1 ?
active

* * *

# subject of test: Polyunsaturated fatty acid lipoxygenase ALOX12 (Homo sapiens)
# test protocol: Primary qHTS assay for inhibitors of human arachidonate 12S-lipoxygenase (ALOX12): Round 2
# conditions used: purified 12hLO, xylenol orange hydroperoxide absorbance; series mostly up to 108 µM
Among all 580,000 compounds or so, about 6,100 (1.1%) were called active. Not shown: some 15% with an inconclusive outcome. Calls come from the whole dose curve; as a rule, active = well fitted inhibition curve with a large enough effect; inconclusive = small, poorly fitted or top-dose-only effect, or another doubt; inactive = no such curve, though single readings can be large or run the other way. Shown is part of a subset that was picked to be rich in actives.
Give one outcome, nothing more. List: active, inactive

Hi team, can someone confirm the assay call for CNC(NC(=O)c1ccc(C)cc1)C(Cl)(Cl)Cl (stereo not given) ?
inactive

Answer briefly: the call reported for Cc1ccc(-c2csc(C(C#N)=C(O)CN3CCN(C(=O)c4ccco4)CC3)n2)cc1 in this assay.
active

Which outcome was assigned to Cc1oc(-c2nc(C#N)c(N3CCCCCC3)o2)cc1S(=O)(=O)N1CCCCC1 in this test?
inactive

Could you check what this test reported for O=C(COC(=O)c1cnccn1)Nc1cccc2ccccc12 ?
inactive

Please let me know the test result on file for CCCn1c(=O)c2c(C(F)(F)F)cc(-c3cccs3)nc2n(CCC)c1=O .
inactive

* * *

# subject of test: Polyunsaturated fatty acid lipoxygenase ALOX12 (Homo sapiens)
# test protocol: Primary qHTS assay for inhibitors of human arachidonate 12S-lipoxygenase (ALOX12): Round 2
# conditions used: purified 12hLO, xylenol orange hydroperoxide absorbance; series mostly up to 108 µM
About 6,100 (1.1%) of roughly 580,000 compounds were called active. Inconclusive results (about 15%) are left out. Calls follow the shape of the dose curve; as a rule, active = well fitted inhibition curve with a large enough effect; inconclusive = small, poorly fitted or top-dose-only effect, or another doubt; inactive = no such curve, though single readings can be large or run the other way. The sample as a whole holds a higher share of actives than the screen did.
Valid outcomes are listed here; reply with one: class 1 = active, class 0 = inactive

Please share the test call associated with CCOC(=O)Cn1c2c(c(-c3ccccc3OC)cc1=O)CCCC2 .
class 0

Dear all, I need the recorded test outcome for N#CC1=C(N)OC2=C(C(=O)CC(c3ccccc3)C2)C1c1cccs1 (centres undefined) , thank you.
class 1

Per the records of this test, what outcome belongs to Cc1cc(=O)oc2c(C)c(OC(C)C(=O)NCc3ccc(S(N)(=O)=O)cc3)ccc12 (centres undefined) ?
class 0

What was the test verdict on COc1ccc(CCNC(=O)CSc2nc(C)nc3c2oc2ccccc23)cc1OC ?
class 0

Assay outcome for COc1ccc(N2CCN(C(=O)CCNC(=O)c3ccc(Br)cc3)CC2)cc1 : what was it?
class 0

For CCC(=O)N1c2ccccc2NC2=C(C(=O)CC(C)(C)C2)C1c1cc(OC)ccc1OC (centres undefined) , which call appears in the assay record?
class 0

* * *

# subject of test: Polyunsaturated fatty acid lipoxygenase ALOX12 (Homo sapiens)
# test protocol: Primary qHTS assay for inhibitors of human arachidonate 12S-lipoxygenase (ALOX12): Round 2
# conditions used: purified 12hLO, xylenol orange hydroperoxide absorbance; series mostly up to 108 µM
About 6,100 (1.1%) of roughly 580,000 compounds were called active. About 15% were inconclusive and are not listed. Calls follow the shape of the dose curve; as a rule, active = well fitted inhibition curve with a large enough effect; inconclusive = small, poorly fitted or top-dose-only effect, or another doubt; inactive = no such curve, though single readings can be large or run the other way. Shown is part of a subset that was picked to be rich in actives.
Output constraint: value belongs to 1.0 (active), 0.0 (inactive)

>>> discrete_label("Cc1cccc(NC(NC(=O)C(C)C)(C(F)(F)F)C(F)(F)F)c1")
0.0
>>> discrete_label("CN(c1ccccc1)c1cc(=O)c2ccnc(-c3ccc(CO)cc3)c2o1")
0.0
>>> discrete_label("CC(O)CNCCOc1cccc(Oc2ccccc2)c1 (stereo unspecified)")
0.0
>>> discrete_label("CCc1nnc(NS(=O)(=O)c2ccc(NC(=S)NC(=O)c3cccs3)cc2)s1")
1.0

Which outcome was entered for the molecule CCN(CC)S(=O)(=O)c1ccc(Sc2nnc(C)s2)nc1 in this test?
0.0

Please state the recorded outcome for this molecule: CCCc1nc(C#N)c(N2CCN(c3ccccc3)CC2)o1
0.0

For this molecule, state the assay outcome: CCc1ccc(Nc2n[n+](-c3ccccc3)c(-c3cccc(Cl)c3Cl)s2)cc1
1.0

Assay result, entry COc1ccc(C)cc1CN(C)C(=O)CCn1ccc2ccccc21 — outcome?
0.0

Which outcome was entered for the molecule CCn1nc(C)cc1-c1nn2c(-c3cccc(Cl)c3Cl)nnc2s1 in this test?
0.0

Could you please tell me the result logged for CN(c1ccccc1)c1cc(=O)c2ccnc(NC3CCOCC3)c2o1 in this assay?
0.0

Please indicate how the test categorized O=C(CCNC(=O)N1CCN(C(=O)c2cc3ccccc3[nH]2)CC1)NCc1ccccn1 .
0.0

What classification did CCOC(=O)c1c(NC(C)=O)sc2c(OCC(=O)Nc3ccccc3C)c(C)ccc12 end up with in this test?
0.0

Check the results log: what was the call for CCOCCCNCc1ccccc1Cl ?
0.0

Just curious, what result did N#Cc1ccc(OCC(O)CNCCC2=CCCCC2)cc1 (stereo unspecified) get here?
0.0

Test call for this molecule, please: CCN(CC)c1ccc(NC(=O)CSc2ncnc3ccccc23)cc1
0.0

Recorded test call requested for CCCc1noc(CN2CCN(c3cc(C)nc(C(C)C)n3)CC2)n1
0.0

Recorded call for Cn1cc(C(=O)N2CCC(C(N)=O)CC2)c2ccccc21 ?
0.0

Please state the recorded outcome for this molecule: CN(c1ccccc1)c1cc(=O)c2ccnc(Nc3cccc([S+](C)(=O)[O-])c3)c2o1
1.0

Give the logged outcome of this assay for the following molecule: CN(C)C(=O)c1ccc(OCc2coc(-c3ccccc3)n2)cc1
0.0

Called result for N#Cc1cccc(NC(=O)O[C@@H]2CO[C@H]3[C@@H]2OC[C@@H]3Nc2nccc(-c3ccccc3)n2)c1
0.0

Please indicate how the test categorized COc1cccc(CN(C(=O)c2oc3cc(Br)ccc3c2C)C2CCS(=O)(=O)C2)c1 (stereo unspecified) .
0.0

* * *

# subject of test: Polyunsaturated fatty acid lipoxygenase ALOX12 (Homo sapiens)
# test protocol: Primary qHTS assay for inhibitors of human arachidonate 12S-lipoxygenase (ALOX12): Round 2
# conditions used: purified 12hLO, xylenol orange hydroperoxide absorbance; series mostly up to 108 µM
About 6,100 (1.1%) of roughly 580,000 compounds were called active. About 15% were inconclusive and are not listed. Calls follow the shape of the dose curve; as a rule, active = well fitted inhibition curve with a large enough effect; inconclusive = small, poorly fitted or top-dose-only effect, or another doubt; inactive = no such curve, though single readings can be large or run the other way. Shown is part of a subset that was picked to be rich in actives.
Please state which outcome applies, choosing from 1 (yes) (active), 0 (no) (inactive)

See these solved cases before continuing.
>>> discrete_label("O[C@H]1C[C@H](c2ccc(Cl)cc2)N(Cc2cccs2)C[C@@H]1n1cc(C2CC2)nn1")
"1 (yes)"
>>> discrete_label("Cc1ccc(NC(=O)CCC(=O)c2ccc(Br)cc2)cc1")
"0 (no)"
>>> discrete_label("O=C(CN1c2ccccc2S(=O)(=O)c2ccccc21)Nc1cccc(C(F)(F)F)c1")
"0 (no)"

State the result this test recorded for CCCN(C)C(=O)CCC[C@H]1NC[C@@H]2C[C@H]1CN(Cc1ccccc1)C2 .
0 (no)

# fetch the recorded call for O=[N+]([O-])c1ccccc1CN1C[C@H](O)C[C@H]1c1nc(-c2ccc(F)cc2)no1 here
1 (yes)

Hello, I am checking results. What call was entered for Cc1cc(NC(=O)CCN2CCN(Cc3ccccc3)CC2)ccc1Br ?
1 (yes)

Hi, sorry to bother you, what did the test record for CC(C)OC(=O)c1ccc(NCc2cc(O)ccc2O)cc1Cl ?
1 (yes)

Recorded call for CC(C)Oc1ccc(C(=O)NC(C)(C)CO)cc1 ?
0 (no)

Record request — test call for CC(=O)c1ccc(NC(=O)[C@@]2(CC(=O)O)CC(c3ccc(Br)cc3)=NO2)cc1
1 (yes)

Please let me know the test result on file for CC(C)C(=O)N/N=C/c1ccc(Cl)cc1 .
0 (no)

Would you mind telling me which call this test gave CC(C)(C)c1ccc(/C=N/NC(=O)c2ccccc2)cc1 ?
0 (no)

Record request — test call for Cc1ccccc1S(=O)(=O)N1CCCC(CCC(=O)NCC2CCCCC2)C1 (configuration not stated)
0 (no)

Numbers sourced from PubChem BioAssay AID1671190.
